target: T1, Human CD137 ECD (human); assay: SPR, vs parent H183/L072
T1 construct: also called 4-1BB
T1 sequence (chain, as listed by the source limits assumed): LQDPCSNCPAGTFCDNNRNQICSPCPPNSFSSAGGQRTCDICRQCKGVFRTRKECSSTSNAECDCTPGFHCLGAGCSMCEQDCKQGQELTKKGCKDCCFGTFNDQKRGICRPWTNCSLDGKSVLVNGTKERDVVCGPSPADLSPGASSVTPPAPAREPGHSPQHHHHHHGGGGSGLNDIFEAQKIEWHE
RESULT_TYPE: fold change of affinity (fold)

dBBDu183H T100bN / dBBDu072L (antibody, name in Kabat numbering, V domains shown, as m1, one VH change) VH: QVQLVESGGGLVQPGRSLRLSCAASGFTFSNAWMHWVRQAPGKGLEWVAQIKDKGNAYAAYYAPSVKGRFTISRDDSKNSIYLQMNSLKTEDTAVYYCHYVHYASASNVLPAFGVDAWGQGTTVTVSS VL: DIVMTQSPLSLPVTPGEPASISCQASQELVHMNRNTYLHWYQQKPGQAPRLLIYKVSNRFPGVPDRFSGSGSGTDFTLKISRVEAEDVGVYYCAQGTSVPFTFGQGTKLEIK; 0.1
dBBDu183H P61S / dBBDu072L (antibody, name in Kabat numbering, V domains shown, as m1, one VH change) VH: QVQLVESGGGLVQPGRSLRLSCAASGFTFSNAWMHWVRQAPGKGLEWVAQIKDKGNAYAAYYASSVKGRFTISRDDSKNSIYLQMNSLKTEDTAVYYCHYVHYASASTVLPAFGVDAWGQGTTVTVSS VL: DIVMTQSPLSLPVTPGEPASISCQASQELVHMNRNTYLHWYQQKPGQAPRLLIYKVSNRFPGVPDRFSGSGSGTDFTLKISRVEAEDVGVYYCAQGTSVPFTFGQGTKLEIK; 1.1
dBBDu183H V100cR / dBBDu072L (antibody, name in Kabat numbering, V domains shown, as m1, one VH change) VH: QVQLVESGGGLVQPGRSLRLSCAASGFTFSNAWMHWVRQAPGKGLEWVAQIKDKGNAYAAYYAPSVKGRFTISRDDSKNSIYLQMNSLKTEDTAVYYCHYVHYASASTRLPAFGVDAWGQGTTVTVSS VL: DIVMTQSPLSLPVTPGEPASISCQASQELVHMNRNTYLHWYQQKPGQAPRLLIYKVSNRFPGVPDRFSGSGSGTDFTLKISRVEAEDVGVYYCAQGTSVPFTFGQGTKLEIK; 0.7
